pKd reference
Target: T1, fHbp m001928 (Neisseria meningitidis; fHbp …, chimera)
T1 chain: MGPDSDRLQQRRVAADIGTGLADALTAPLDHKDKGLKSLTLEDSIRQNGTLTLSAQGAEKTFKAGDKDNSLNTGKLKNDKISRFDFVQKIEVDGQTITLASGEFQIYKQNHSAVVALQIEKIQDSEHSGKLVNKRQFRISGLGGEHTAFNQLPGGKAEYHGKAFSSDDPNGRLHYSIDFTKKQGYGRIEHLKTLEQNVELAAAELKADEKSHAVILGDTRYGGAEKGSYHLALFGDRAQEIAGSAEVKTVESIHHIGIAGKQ
Assay: BLI
Settings: both partners purified
For clarity, pKd is expressed as the negative log10 of concentration in mol/L.

Example binders with recorded pKd:
BINDER	MEAS VALUE
mAb 1E6 (human) (antibody, V domains shown, source: Expi293, purified (MabSelect SuRe, SEC); copies: 2 + 2) VH: EVQLVQSGAEVKKPGSSVKVSCKASGGTVIDYPITWVRQAPGQGLEWVGGFVPLFRTSNYGQKFQGRVTITADKSTSTASMELNSLTSEDTAIYYCARGDTAMGPFDYWGQGTLVTVSS VL: SYVLTQPPSLSVAPGKTATLTCGGNNIAGKTVHWYQQRPGQAPVLVISYDSDRPSGIPERFSGSNSANTATLTISRVEAGDEADYYCQVWDRNSDHWVFGGGTKLTVL	9.76
chimeric antibody hJAR5 (antibody, V domains shown, also called hJAR5-2; humanized JAR5; source: Expi293, purified (MabSelect SuRe, SEC); copies: 2 + 2) VH: QVQMQQPGAELVKPGASVKLSCKASGYTFISYWMHWVKQRPGRGLEWIGRIAPDTGIIYYNEKFKNKATLTVDTPSSTAYMQLNSLTSEDSAVYYCARYLKYDGSTYRFDYWGQGTTLTVSS VL: DIVMTQAAPSVPVTPGESVSISCRSSKSLLHSNGNTYLFWFLQRPGQSPQLLIYRMSNLASGVPDRFSGSGSGTSFTLRISRVEAEDVGVYYCMQHLEYPYTFGGGTKLEIK	9.13
chimeric antibody h12C1 (antibody, V domains shown, also called humanized 12C1; source: Expi293, purified (MabSelect SuRe, SEC); copies: 2 + 2) VH: QVQLQESGPELVKPGASVKISCKASGYSFSDYNMSWVKQSNGKSLEWIGIIDPKYGTINYNQKFKGKATLTVDQASSTAYMQLNSLTSEDSAVYYCVRDYYGSSYFDYWGQGTTLTVSS VL: DIVLTQSPSSIYASLGERVTLTCKASQDIHNYLNWFQQKPGKSPKTLIYRANRLVDGVPSRFSGGGSGQDYSLTISSLEFEDIGIYYCLQYDEFPPTFGGGTRLEIK	7.26

Find the recorded pKd belonging to mAb 4B3 (human) (antibody, V domains shown, also called 4B3-2; source: Expi293, purified (MabSelect SuRe, SEC); copies: 2 + 2) VH: QVQLVQSGGGLVKPGGSLRLSCAASGFPFSSYYMSWIRQAPGKGLEWVSDINNSGNVKEYADFVKGRLTISRDNVKNSMYLHMNSLRVEDTAVYYCARNRGRFDVWGQGTLVTVSA VL: EIVMTQSPGTLSLSPGETATLSCRASQMISSPFLAWYQQRRGQAPRLLIYGASTRATDTPDRFRGSGSGTDFILTISRLEPEDFAVYYCQYYDDSPFTFGQGTKLEIK and report it.
8.37
